Attribution: the RNAGym collection of RNA variant scans (doi:10.1126/science.aae0568)

B1: tRNA (parent)
chain: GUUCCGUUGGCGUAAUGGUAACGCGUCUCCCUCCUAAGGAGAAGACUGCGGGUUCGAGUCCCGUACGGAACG

variants of: B1; assay: yeast fitness relative to wild type (ratio to wild type); higher = fitter; tRNA-Arg(CCU), competitive growth, 37 C, YPD
Variants at the floor of the assay were thinned out.
observable: yeast fitness
Keep the answer to the number alone.

Challenge: Provide only the value of recorded yeast fitness for C5G C27U C46U
Response given: 0.754

Challenge: Provide only the value of recorded yeast fitness for G12A C61G
Response given: 0.605

Challenge: Provide only the value of recorded yeast fitness for C49A A65U G67A
Response given: 0.529

Challenge: Provide only the value of recorded yeast fitness for U2G C62G G67A
Response given: 0.526

Challenge: Provide only the value of recorded yeast fitness for U2G C22A G25A
Response given: 0.639

Challenge: Provide only the value of recorded yeast fitness for G23C A70U
Response given: 0.717

Challenge: Provide only the value of recorded yeast fitness for U16C A21G
Response given: 0.91

Challenge: Provide only the value of recorded yeast fitness for C22G C31G C49U
Response given: 0.605

Challenge: Provide only the value of recorded yeast fitness for A15C C22A G25C U28A A36U A57C A65C G68C
Response given: 0.568

Challenge: Provide only the value of recorded yeast fitness for A15C U53G
Response given: 0.621

Challenge: Provide only the value of recorded yeast fitness for C30G C33G A42G C49U C61U
Response given: 0.663

Challenge: Provide only the value of recorded yeast fitness for G12U A36G
Response given: 0.758

Challenge: Provide only the value of recorded yeast fitness for C30A G38C
Response given: 0.851

Challenge: Provide only the value of recorded yeast fitness for G6C C34G
Response given: 0.717

Challenge: Provide only the value of recorded yeast fitness for C5G G6A C24U
Response given: 0.577

Challenge: Provide only the value of recorded yeast fitness for A20U C30U C31G A43G G44A U47A C49G
Response given: 0.595

Challenge: Provide only the value of recorded yeast fitness for G10A C29A C34G A43C C60G
Response given: 0.663

Challenge: Provide only the value of recorded yeast fitness for C30U A65C
Response given: 0.841

Challenge: Provide only the value of recorded yeast fitness for U16C A69G A70G
Response given: 0.745

Challenge: Provide only the value of recorded yeast fitness for U19A C61U
Response given: 0.983

Challenge: Provide only the value of recorded yeast fitness for A36C A37G C49A
Response given: 0.541

Challenge: Provide only the value of recorded yeast fitness for C29A G39A
Response given: 0.725

Challenge: Provide only the value of recorded yeast fitness for U13C C46G
Response given: 0.97

Challenge: Provide only the value of recorded yeast fitness for C30U A57G A70U
Response given: 0.558

Challenge: Provide only the value of recorded yeast fitness for U2C C31G G56A
Response given: 0.687

Challenge: Provide only the value of recorded yeast fitness for C5A A43U U47C
Response given: 0.543

Challenge: Provide only the value of recorded yeast fitness for A14U C30U
Response given: 0.558

Challenge: Provide only the value of recorded yeast fitness for G6A G12A C22A
Response given: 0.603

Challenge: Provide only the value of recorded yeast fitness for U19A C46U C49G
Response given: 1.07

Challenge: Provide only the value of recorded yeast fitness for U35A G44C
Response given: 0.71
